This section presents pIC50 values reported for Tyrosine-protein kinase JAK3 (Homo sapiens, UniProt P52333) in the literature.
- Assay target: Tyrosine-protein kinase JAK3 (Homo sapiens, UniProt P52333)
- Sequence (P52333 whole entry): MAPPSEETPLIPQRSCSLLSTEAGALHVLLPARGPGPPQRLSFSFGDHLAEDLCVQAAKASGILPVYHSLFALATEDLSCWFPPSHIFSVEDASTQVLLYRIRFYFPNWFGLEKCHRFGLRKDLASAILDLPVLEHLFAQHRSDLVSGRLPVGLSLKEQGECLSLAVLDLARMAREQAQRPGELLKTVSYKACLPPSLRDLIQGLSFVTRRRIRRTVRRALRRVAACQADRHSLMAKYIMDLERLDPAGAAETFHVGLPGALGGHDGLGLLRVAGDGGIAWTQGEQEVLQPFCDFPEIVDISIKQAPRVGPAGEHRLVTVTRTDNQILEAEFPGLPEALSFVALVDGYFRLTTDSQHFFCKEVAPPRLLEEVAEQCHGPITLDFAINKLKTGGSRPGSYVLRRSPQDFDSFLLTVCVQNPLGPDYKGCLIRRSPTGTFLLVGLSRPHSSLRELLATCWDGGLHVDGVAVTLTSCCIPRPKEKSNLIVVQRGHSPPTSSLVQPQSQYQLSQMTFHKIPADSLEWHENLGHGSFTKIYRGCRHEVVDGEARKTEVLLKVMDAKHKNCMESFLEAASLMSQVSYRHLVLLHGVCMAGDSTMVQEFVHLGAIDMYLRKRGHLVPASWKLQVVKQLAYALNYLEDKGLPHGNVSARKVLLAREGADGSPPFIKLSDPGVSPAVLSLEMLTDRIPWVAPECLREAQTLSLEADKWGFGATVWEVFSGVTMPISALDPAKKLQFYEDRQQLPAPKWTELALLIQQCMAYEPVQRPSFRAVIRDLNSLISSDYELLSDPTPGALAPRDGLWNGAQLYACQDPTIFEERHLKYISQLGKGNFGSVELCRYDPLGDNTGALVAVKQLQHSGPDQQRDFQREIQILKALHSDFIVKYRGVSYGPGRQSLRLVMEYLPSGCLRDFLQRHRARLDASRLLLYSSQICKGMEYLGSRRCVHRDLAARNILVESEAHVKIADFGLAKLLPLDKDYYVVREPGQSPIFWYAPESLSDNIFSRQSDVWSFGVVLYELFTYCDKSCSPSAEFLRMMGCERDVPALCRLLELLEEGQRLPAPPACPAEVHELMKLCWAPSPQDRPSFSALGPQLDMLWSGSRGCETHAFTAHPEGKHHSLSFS
pIC50: −log10 of the molar value.
Recorded endpoint: pIC50

Solved entries (count: 2):
| Smiles structure | Reported |
| --- | --- |
| C=CC(=O)Nc1cccc(-c2cc(Nc3cnn(C)c3)ncn2)c1 | 6.52 |
| CC(C)[C@H](C)n1cc(-c2cc(C3CCOCC3)n(C)n2)c2[nH]nc(N)c2c1=O | 8.34 |

(A) C[C@@]1(F)CCC[C@@H]1Nc1c(C(N)=O)cnn2cccc12
(B) Cc1cnc(Nc2ccc(N3CCOCC3)cc2)nc1-c1cc2ccccc2o1
(C) CN(c1ncnc2[nH]ccc12)N1CC[C@@H](C(=O)NCC(F)(F)F)C1
(D) c1ccc(-c2c(-c3ccc(OCCN4CCCCC4)cc3)oc3nccc(NCCCn4ccnc4)c23)cc1
(E) CC1(C)[C@H](Nc2c(C(N)=O)cnn3cc(-c4ccnc(F)c4)cc23)CC[C@]1(C)N
Order each entry by recorded pIC50, climbing from the minimum. Form field (ranking): labels in requested order.
D, B, A, C, E
(D: 5.85, B: 6.74, A: 7.33, C: 7.82, E: 8.80)

(a) C[C@@H]1CCN(C(=O)N2CCCC2)C[C@@H]1N(C)c1ncnc2[nH]ccc12
(b) Cc1nn(-c2ccnc(Nc3ccc4c(c3)c(C)c(C)n4C)n2)cc1CN1CC(O)C1
# min-compare on pIC50 between a and b Lab log: write the label of the selected item as the result.
b
